TEST TARGET: HsTIM (human triosephosphate isomerase) (Homo sapiens, UniProt P60174, N16D)
Construct: gene TPI1; full-length; recombinant E. coli BL21-CodonPlus(DE3)-RIL, vector pET3a-HisTEV, N-terminal His6-TEV tag cut by TEVp for purified assays; tagged plasmid in E. coli tim-deletion BL21-Gold(DE3) cells for omeprazole; homodimer, 5 Cys per subunit
Sequence (P60174 2-249 N16D): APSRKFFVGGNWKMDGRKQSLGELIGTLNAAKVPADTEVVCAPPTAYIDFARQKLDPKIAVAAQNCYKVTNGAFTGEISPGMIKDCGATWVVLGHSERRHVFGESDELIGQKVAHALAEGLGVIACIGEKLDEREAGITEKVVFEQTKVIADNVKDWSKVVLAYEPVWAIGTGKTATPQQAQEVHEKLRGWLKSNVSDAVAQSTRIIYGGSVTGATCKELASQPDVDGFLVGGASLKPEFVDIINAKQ
ASSAY NOTES: residual activity after preincubation, coupled alpha-GPDH / NADH assay at […] nm
Type: biochemical
ASSAY CONDITIONS: read-out: activity dropped to 50%
ENDPOINT: IC50 (µM)

CSS(C)(=O)=O [MMTS] ... 7.5

a: CS(=O)(=O)SCCS(=O)(=O)O [MTSES]
b: O=C(O)c1cc(SSc2ccc([N+](=O)[O-])c(C(=O)O)c2)ccc1[N+](=O)[O-] [DTNB, 5,5′-dithiobis-(2-nitrobenzoic acid)]
For the two items a and b , which reports the higher IC50 value? When you have decided, please share the label of that item. a
